- assay.remarks: chemical genetic growth profiling, strain panel (AID 1159580);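 also: tested at 20 µM; growth read once vehicle control cultures reached saturation at 30 °C; lower values mean less growth of the strain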
- details: S. cerevisiae deletion strains, growth OD, locus YOR184W, strain ser1
Screen size: about 5,500 compounds; about 2,000 (36%) were called active. Not shown: some 18% with an inconclusive outcome. Rule as the data show it: active = normalized growth mostly below about 0.91 (no sharp cut-off); inconclusive = no clear call, values can overlap the other calls; inactive = mostly above about 0.92. Some of the results follow.
Write down one outcome, taken from Yes = active, No = inactive

Assay outcome for CC(=O)O[C@]1(C)CC[C@@]23CC1C(C)(C)[C@@H]2CC[C@H]3C : what was it?
Yes

Can you look up the reported call for Fc1ccc([C@@H]2CCNC[C@H]2COc2ccc3c(c2)OCO3)cc1 for me?
No

Field: outcome | Entry: COC1C=CC23c4cc5c(cc4CN(CC2O)[C@@H]3C1)OCO5 (stereo not given in full)
No

Per the records of this test, what outcome belongs to CC(=O)O[C@H]1C[C@@]2(C)[C@@H](C[C@@H](O)C3[C@]2(C)CC[C@H]2[C@H](C)[C@H](O)CC[C@]32C)/C1=C(/CCC=C(C)C)C(=O)O (stereo not given in full) ?
No

Kindly provide the recorded test outcome for the following compound: NC(C(=O)O)C(O)C(=O)O (stereo not given)
No
